All values here come from patent US20200230168.

Reported binding signal values follow for various binders
- TGT: hSSB1 (Homo sapiens, UniProt Q9BQ15 Q9BQ15:1-211)
- Sequence (Q9BQ15 whole entry, one chain of several): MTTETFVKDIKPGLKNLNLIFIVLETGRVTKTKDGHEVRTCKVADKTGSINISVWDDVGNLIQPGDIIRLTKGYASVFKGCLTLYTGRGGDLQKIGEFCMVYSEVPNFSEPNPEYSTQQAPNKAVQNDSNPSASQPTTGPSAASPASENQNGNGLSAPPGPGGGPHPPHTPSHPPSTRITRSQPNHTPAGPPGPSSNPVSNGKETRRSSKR
- METHOD_SUMMARY: SPR
Kindly answer with a numeric value in normalized Rmax, unit omitted.

BINDER: GCCCGUCUGGCGCAUAGCUA (ssRNA, 2'-OMe all, full PS) [DKLS646683 (SEQ 54)]
VALUE_UNIT: normalized Rmax
binding signal: 0.98

BINDER: GUGCAUGGAAUCACGGAG (ssRNA, 2'-OMe all, full PS) [Open_A 3' truncation 18 nt]
VALUE_UNIT: normalized Rmax
binding signal: 1.03

BINDER: GCCGGACUUGCCU (ssRNA, 2'-OMe all, full PS) [In3E3 5' truncation 13 nt]
VALUE_UNIT: normalized Rmax
binding signal: 0.22

Moving on to another binder below.
Ask: For the binder GGGACGCGGCGCUCGGUCAU (ssRNA, 2'-OMe all, full PS) [DKLS951212 (SEQ 30)] , what binding signal is on record?
Reply: 2.13
